This listing pairs variants with measured protein stability index.
B1: CAMK2A (parent)
chain: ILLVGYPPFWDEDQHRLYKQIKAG

- Variants of: B1
- ASSAY OVERVIEW: protein stability index of a GFP-peptide fusion (GPS, HEK-293T) (PSI 1-6); higher = more stable;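 also: lentivirally expressed fusions sorted by FACS into six bins by GFP to DsRed ratio, PSI derived from sequencing read proportions per bin multiplied by bin number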
- CONDITIONS USED: c terminus: a fixed tail appended
Number only, please.

> print(dat)
    mut  test.value
1  E12I        2.76

Name the reported protein stability index value associated with the variant P7Q
1.28

Name the reported protein stability index value associated with the variant D11W
2.44

Name the reported protein stability index value associated with the variant D13L
3.98

Name the reported protein stability index value associated with the variant A23V
1.98

Name the reported protein stability index value associated with the variant K22S
3.22

Name the reported protein stability index value associated with the variant L17I
2.1

Name the reported protein stability index value associated with the variant W10Q
2.27

Name the reported protein stability index value associated with the variant D11F
3.09

Name the reported protein stability index value associated with the variant K22A
2.87

Name the reported protein stability index value associated with the variant V4C
1.64

Name the reported protein stability index value associated with the variant P8N
4.23

Name the reported protein stability index value associated with the variant V4K
2.23

Name the reported protein stability index value associated with the variant G24K
1.7

Name the reported protein stability index value associated with the variant Y18T
3.2
